Catalogue of half-life readings, one per entry.
- measurementNotes: Rodent pharmacokinetic study
- Type: in vivo, Male Wistar rats
- runConditions: male, Wistar, plasma; rat, oral (gavage), 3 mg/kg
Dear colleague, please return just the value in h, with no unit written.

| compound | recordedNumber |
| --- | --- |
| Cn1ccc2c(Cc3ccc(Cl)nc3)cc(C(=O)N[C@H]3CCCC[C@@H]3O)nc21 | 3.6 |
| Cl.O=C(N[C@H]1CCCC[C@@H]1O)c1cc(Cc2ccc(F)cc2)c2c(n1)CNCC2 | 0.7 |
| CN1CCOc2c(Cc3ccc(F)cc3)cc(C(=O)N[C@@H]3CCOC[C@H]3O)nc21 (single isomer, unassigned; isomer-ii) | 0.5 |

The measured half-life associated with CN1CCc2c(Cc3ccnc(F)c3)cc(C(=O)N[C@H]3CCCC[C@@H]3O)nc21 reads 1.2

The measured half-life associated with Cn1ccc2c(Cc3ccnc(F)c3)cc(C(=O)N[C@H]3CCCC[C@@H]3O)nc21 reads 1.3

The measured half-life associated with CN1CCOc2c(Cc3ccc(F)cc3)cc(C(=O)N[C@H]3CCCC[C@@H]3O)nc21 reads 3.5

The measured half-life associated with O=C(N[C@H]1CCCC[C@@H]1O)c1cc(Cc2ccc(F)cc2)c2c(n1)OCCO2 reads 0.5

====

- assayedTarget: muscarinic M1 receptor (Homo sapiens)
- Sequence (P11229 1-460): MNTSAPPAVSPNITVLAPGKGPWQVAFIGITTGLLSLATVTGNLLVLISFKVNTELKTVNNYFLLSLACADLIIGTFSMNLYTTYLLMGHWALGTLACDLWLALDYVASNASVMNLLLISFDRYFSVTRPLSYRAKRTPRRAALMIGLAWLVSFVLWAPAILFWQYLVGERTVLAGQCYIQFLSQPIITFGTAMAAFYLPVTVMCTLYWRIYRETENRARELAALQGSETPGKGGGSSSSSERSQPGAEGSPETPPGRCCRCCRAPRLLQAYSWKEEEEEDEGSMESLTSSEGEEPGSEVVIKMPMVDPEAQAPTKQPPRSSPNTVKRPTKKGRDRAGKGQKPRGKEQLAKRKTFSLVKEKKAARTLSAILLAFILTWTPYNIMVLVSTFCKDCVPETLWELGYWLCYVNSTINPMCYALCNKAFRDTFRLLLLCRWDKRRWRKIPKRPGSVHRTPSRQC
- measurementNotes: Allosteric potency EC50 for muscarinic M1 receptor (CHO pCRE-Luc reporter assay)
- runConditions: in presence of EC20 of acetylcholine; CHO cells, luciferase reporter, 4 hours
Lab note: compare EC50 with 1000 nM, writing Fulfilled if less and Not fulfilled if equal or more.

| compound | groupLabel |
| --- | --- |
| O=C(N[C@@H]1CCOC[C@H]1O)c1cc(Cc2ccc(-c3cscn3)cc2)c2c(n1)CNCC2 (single isomer, unassigned; isomer-ii) | Fulfilled |

EC50 strictly < 1000 nM for this compound? CN1CCc2c(Cc3ccc(F)cc3)cc(C(=O)N[C@H]3CCCC[C@@H]3O)nc21
Fulfilled

EC50 strictly < 1000 nM for this compound? Cn1ccc2c(Cc3ccc(-c4cscn4)cc3)cc(C(=O)N[C@@H]3CCOC[C@H]3O)nc21 (single isomer, unassigned; isomer-ii) [Example 55]
Fulfilled

====

- measurementNotes: Rodent pharmacokinetic study
- Assay type: in vivo, Male Wistar rats
- runConditions: male, Wistar, plasma; rat, oral (gavage), 3 mg/kg
reportedProperty: log10 of AUC(0-t) (log10 of the value in ng·h/mL)
Field: value | Transform: log10 | Quantity: AUC(0-t) | Unit: ng·h/mL

Worked cases, log10 of AUC(0-t) given:
| compound | log10 of AUC(0-t) |
| --- | --- |
| CN1CCOc2c(Cc3ccc(F)cc3)cc(C(=O)N[C@@H]3CCOC[C@H]3O)nc21 (single isomer, unassigned; isomer-ii) | 2.72 |
| Cn1ccc2c(Cc3ccnc(F)c3)cc(C(=O)N[C@H]3CCCC[C@@H]3O)nc21 | 2.94 |
| O=C(N[C@H]1CCCC[C@@H]1O)c1cc(Cc2ccc(F)cc2)c2c(n1)OCCO2 | 3.04 |
| Cl.O=C(N[C@H]1CCCC[C@@H]1O)c1cc(Cc2ccc(F)cc2)c2c(n1)CNCC2 | 2.34 |
| CN1CCOc2c(Cc3ccc(F)cc3)cc(C(=O)N[C@H]3CCCC[C@@H]3O)nc21 | 2.37 |
| Cn1ccc2c(Cc3ccc(Cl)nc3)cc(C(=O)N[C@H]3CCCC[C@@H]3O)nc21 | 3.43 |

The measured log10 of AUC(0-t) associated with CN1CCc2c(Cc3ccnc(F)c3)cc(C(=O)N[C@H]3CCCC[C@@H]3O)nc21 reads 3.24
